# Test Method Notes: Inhibition of HCV 1a recombinant full length NS3/4A protease
# Set-up: species or system Hepatitis C virus subtype 1a
Attribute Measured: Ki (nM)
Write the number in nM without appending the unit.

COc1ccc2c(O[C@@H]3C[C@H]4C(=O)N[C@]5(C(=O)O)C[C@H]5C=CCCCCN(NC(=O)OC(C)(C)C)C(=O)[C@@H]4C3)cc(-c3ccccc3)nc2c1 = 31
COc1ccc2c(O[C@@H]3C[C@H]4C(=O)N[C@]5(C(=O)O)C[C@H]5/C=C\CCCCCN(NC(=O)OC(C)(C)C)C(=O)[C@@H]4C3)cc(-c3ccccc3)nc2c1 = 710
COc1ccc2c(O[C@@H]3C[C@H]4C(=O)N[C@]5(C(=O)O)C[C@H]5/C=C\CCCCCN(N)C(=O)[C@@H]4C3)cc(-c3ccccc3)nc2c1 = 120

### Prompt Entry under review: "COc1ccc2c(O[C@@H]3C[C@H]4C(=O)N[C@]5(C(=O)NS(=O)(=O)C6CC6)C[C@H]5C=CCCCCN(NC(=O)OC(C)(C)C)C(=O)[C@@H]4C3)cc(-c3ccccc3)nc2c1" . Reported Ki?
### Response 0.07

### Prompt Follow-up item: "COc1ccc2c(O[C@@H]3C[C@H]4C(=O)N[C@]5(C(=O)O)C[C@H]5C=CCCCCN(C)C(=O)[C@@H]4C3)cc(-c3ccccc3)nc2c1"
### Response 44

### Prompt Follow-up item: "COc1ccc2c(O[C@H]3C=C4C(=O)N(N)CCCCC/C=C\[C@@H]5C[C@@]5(C(=O)O)NC(=O)[C@@H]4C3)cc(-c3ccccc3)nc2c1"
### Response 110

### Prompt Follow-up item: "COc1ccc2c(O[C@@H]3C[C@H]4C(=O)N[C@]5(C(=O)O)C[C@H]5/C=C\CCCN(NC(=O)OC(C)(C)C)C(=O)[C@@H]4C3)cc(-c3ccccc3)nc2c1"
### Response 130

====

The following compounds are shown together with reported Ki values.
# Test Method Notes: Inhibition of HCV 1a recombinant full length NS3/4A protease
# Parameters: species or system Hepatitis C virus subtype 1a
Write the number in nM without appending the unit.

Study these solved cases before continuing.
COc1ccc2c(O[C@@H]3C[C@H]4C(=O)N[C@]5(C(=O)NS(=O)(=O)C6CC6)C[C@H]5C=CCCCCN(N)C(=O)[C@@H]4C3)cc(-c3ccccc3)nc2c1 = 0.19
COc1ccc2c(O[C@H]3C[C@H]4C(=O)NCCCCC=C[C@@H]5C[C@@]5(C(=O)NS(=O)(=O)C5CC5)NC(=O)[C@@H]4C3)cc(-c3ccccc3)nc2c1 = 2.2
COc1ccc2c(O[C@@H]3C[C@H]4C(=O)N[C@]5(C(=O)O)C[C@H]5C=CCCCCN(N)C(=O)[C@@H]4C3)cc(-c3ccccc3)nc2c1 = 6
COc1ccc2c(O[C@@H]3C[C@H]4C(=O)N[C@]5(C(=O)NS(=O)(=O)C6CC6)C[C@H]5C=CCCCCN(C)C(=O)[C@@H]4C3)cc(-c3ccccc3)nc2c1 = 0.41

Shift focus to the following entry.
### Prompt Entry under review: "COc1ccc2c(O[C@H]3C[C@H]4C(=O)NCCCCC=C[C@@H]5C[C@@]5(C(=O)O)NC(=O)[C@@H]4C3)cc(-c3ccccc3)nc2c1" . Reported Ki?
### Response 260

====

# Test Method Notes: Inhibition of human elastase
Attribute Measured: Ki

### Prompt Entry under review: "COc1ccc2c(O[C@@H]3C[C@H]4C(=O)N[C@]5(C(=O)NS(=O)(=O)C6CC6)C[C@H]5C=CCCCCN(C)C(=O)[C@@H]4C3)cc(-c3ccccc3)nc2c1" . Reported Ki?
### Response > 5 µM

====

# System Tested: Cathepsin B (Homo sapiens)
Attribute Measured: Ki (nM)
Write the number in nM without appending the unit.

### Prompt Param readout = Ki; param system = Cathepsin B (Homo sapiens); param query = "COc1ccc2c(O[C@@H]3C[C@H]4C(=O)N[C@]5(C(=O)NS(=O)(=O)C6CC6)C[C@H]5C=CCCCCN(C)C(=O)[C@@H]4C3)cc(-c3ccccc3)nc2c1" ; response: value
### Response 2200

====

# Test system: Hepatitis C virus
# Test Method Notes: Antiviral activity against HCV 1b replicon in Huh7 cells after 48 hrs
# Type: functional, organism-based, Hepacivirus hominis
# Measurement Context: genotype 1b, Huh-7, 48 h
Attribute Measured: EC50 (µM)
Write the number in µM without appending the unit.

Study these solved cases before continuing.
COc1ccc2c(O[C@@H]3C[C@H]4C(=O)N[C@]5(C(=O)O)C[C@H]5C=CCCCCN(N)C(=O)[C@@H]4C3)cc(-c3ccccc3)nc2c1 = 7.6
COc1ccc2c(O[C@@H]3C[C@H]4C(=O)N[C@]5(C(=O)NS(=O)(=O)C6CC6)C[C@H]5C=CCCCCN(NC(=O)OC(C)(C)C)C(=O)[C@@H]4C3)cc(-c3ccccc3)nc2c1 = 0.53
COc1ccc2c(O[C@H]3C=C4C(=O)N(N)CCCCC/C=C\[C@@H]5C[C@@]5(C(=O)O)NC(=O)[C@@H]4C3)cc(-c3ccccc3)nc2c1 = 4.5
COc1ccc2c(O[C@@H]3C[C@H]4C(=O)N[C@]5(C(=O)NS(=O)(=O)C6CC6)C[C@H]5C=CCCCCN(N)C(=O)[C@@H]4C3)cc(-c3ccccc3)nc2c1 = 0.033

### Prompt Entry under review: "COc1ccc2c(O[C@@H]3C[C@H]4C(=O)N[C@]5(C(=O)NS(=O)(=O)C6CC6)C[C@H]5C=CCCCCN(C)C(=O)[C@@H]4C3)cc(-c3ccccc3)nc2c1" . Reported EC50?
### Response 0.0091

### Prompt Follow-up item: "COc1ccc2c(O[C@H]3C[C@H]4C(=O)NCCCCC=C[C@@H]5C[C@@]5(C(=O)NS(=O)(=O)C5CC5)NC(=O)[C@@H]4C3)cc(-c3ccccc3)nc2c1"
### Response 4.4

### Prompt Follow-up item: "COc1ccc2c(O[C@@H]3C[C@H]4C(=O)N[C@]5(C(=O)O)C[C@H]5C=CCCCCN(C)C(=O)[C@@H]4C3)cc(-c3ccccc3)nc2c1"
### Response 2.2

These measurements were taken from ChEMBL document CHEMBL1140473.
